# kon per record follows
# Assayed target: T1, Histidine-tagged human CD40 protein (hCD40-His) (human, UniProt P25942 21-193)
# T1 construct: not shown: histidine tag
# T1 sequence (P25942 21-193 limits assumed): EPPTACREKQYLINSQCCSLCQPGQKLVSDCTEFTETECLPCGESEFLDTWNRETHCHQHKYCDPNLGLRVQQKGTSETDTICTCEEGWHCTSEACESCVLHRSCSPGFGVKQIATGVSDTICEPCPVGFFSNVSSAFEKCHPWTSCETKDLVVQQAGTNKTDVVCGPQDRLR
# Test: SPR, Biacore T200; antibody on Protein A chip, hCD40-His injected; 1:1 fit
# Method: The binding affinity of the anti-hCD40 antibodies were measured using surface plasmon resonance (SPR) using Biacore (Biacore, INC, Piscataway N.J.) T200 biosensor equipped with pre-immobilized Protein A sensor chips. Anti-hCD40 antibodies were collected by transfecting CHO-S cells and then purified. […] Dissociation was monitored for 300 seconds. […]
Give the value, in units of M⁻¹ s⁻¹, as a plain number.

{"Binder": "4H6-H2K4-IgG4 (antibody, V domains shown, Humanized) VH: EVQLQESGPGLVKPSQTLSLTCTVSGDSVSSGYWNWIRKHPGKKLEWIGFISYSGSTYYTPSLKSRVTISRDTSKNQFSLKLSSVTAADTAVYYCARFRRYDDGVDYWGQGTLVTVSS VL: DIQMTQSPSAMSASVGDRVTLTCRASHEISGYLSWIQQKPGGTIKRLINAASTLASGVPSRFSGSRSGTEYTLTISSLQPEDFADYYCLQYSSYPWTFGGGTKLEIK", "Readout unit": "M⁻¹ s⁻¹", "kon": 196000}
{"Binder": "4H6-H1K4-IgG4 (antibody, V domains shown, Humanized) VH: QVQLQESGPGLVKPSQTLSLTCTVSGDSVSSGYWNWIRKHPGKKLEWIGFISYSGSTYYTPSLKSRVTISRDTSKNQFSLKLSSVTAADTAVYYCARFRRYDDGVDYWGQGTLVTVSS VL: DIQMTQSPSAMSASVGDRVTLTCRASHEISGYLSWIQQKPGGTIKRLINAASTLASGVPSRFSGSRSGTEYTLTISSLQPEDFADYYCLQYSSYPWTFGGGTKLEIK", "Readout unit": "M⁻¹ s⁻¹", "kon": 149000}

Okay, next one:
Form field: reported kon of 6A7-H2K2-IgG4 (antibody, V domains shown, Humanized) VH: QVQLVQSGAEVKKPGASVKVSCKASGYTFISYYIYWVRQAPGQGLEWIGGINPRNGGTNFNEKFKSRATLTVDTSISTAYMELSRLRSEDTAVYYCARHGNGVYWGQGTTVTVSS VL: DVVMTQSPLSLPVTLGQPASISCRSSQSLLHSNGNTYLHWYQQRPGQSPNHLIYQVSNRFSGVPDRFSGSGSGTDFTLKISRVEAEDVGVYFCSQTTHVPWTFGGGTKVEIK
26300

Data credit: patent US20250034271A1
